Origin of values: PubChem BioAssay

protocol_details: HepG2 cytotoxicity, primary screen, cytotoxicity control for P. falciparum antimalarial project, cell-based, ATP luminescence (AID 2303);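 also: 0% = DMSO wells and 100% = digitonin-killed cells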
assay_context: HepG2 viability, 24-48 h, at 10 µM
The source made the active and inactive calls.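 The calls were made as follows: active = inhibition above 50%; inactive = the rest.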
Pick one and only one: active, inactive

compound: CC(C)c1ccc(N(CC(=O)N/N=C/c2ccc(C(F)(F)F)cc2)S(=O)(=O)c2ccc(C(F)(F)F)cc2)cc1
discrete_label: inactive
//
compound: CS(=O)(=O)Cc1ccc(Nc2nccc(-c3c(-c4cccc(NC(=O)C5CCCCC5)c4)nn4ncccc34)n2)cc1
discrete_label: inactive
//
compound: CC(C)(CN)c1nc(-c2ccc(Cl)c(O)c2)c(-c2ccnc(N)n2)[nH]1
discrete_label: inactive
//
compound: O=C(Nc1ccc(N2CCN(Cc3ccccc3)CC2)cc1)c1cccs1
discrete_label: inactive
//
compound: CC(C)(CNCc1ccc(C(F)(F)F)cc1)c1nc(-c2ccc(Cl)c(O)c2)c(-c2ccnc(N)n2)[nH]1
discrete_label: inactive
//
compound: O=C(Nc1ccccc1)Nc1cccc(-c2nn3c(OCCN4CCCC4)cccc3c2-c2ccncc2)c1
discrete_label: inactive

Any idea what this test logged for Cn1cc(-c2ccnc3[nH]c(-c4cccc(CNC5CCC(O)CC5)c4)cc23)cn1 (centres undefined) ?
inactive

Any idea what this test logged for Fc1cccc(C=NNc2ccnc3ccccc23)c1 ?
inactive

Any idea what this test logged for CC1(C)N=C(N)N=C(N)N1OCOc1ccc(Cl)cc1 ?
active

Any idea what this test logged for O=C(Nc1cccc(-c2nn3ncccc3c2-c2ccnc(Nc3ccccc3)n2)c1)c1c(F)cccc1F ?
active

Any idea what this test logged for Cc1sc(NC(=O)c2ccc([N+](=O)[O-])cc2Cl)c(C(N)=O)c1C ?
inactive

Any idea what this test logged for CCCN1CCN(CCNC(=O)c2cccc(Nc3nccc(Nc4ccc(Oc5ccccc5)cc4)n3)c2)CC1 ?
active

Any idea what this test logged for CS(=O)(=O)Nc1ccc(-c2cnc3[nH]cc(-c4ccc(C(=O)O)cc4)c3c2)cc1 ?
inactive

Any idea what this test logged for COc1ccc(Nc2ncc(OC)c(Nc3ccccc3C(N)=O)n2)cc1N1CCN(C)CC1 ?
active

====

growth inhibition overview
protocol_details: inhibition of 3D7 malaria parasite growth – strain 3D7 (AID 2306);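 also: 0% = DMSO wells and 100% = chloroquine plus artemisinin control wells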
assay_context: P. falciparum 3D7 erythrocytic growth, LDH absorbance, 72 h; at 2 µM; stronger effect = higher value
Activity calls are given as the source filed them. How the calls were made is not given here.

Solved entries:
compound: O=C(/C=C/c1ccc(Cl)cc1)NCCCCCN1CCCN(C(=O)Nc2cccc(Cl)c2)CC1
result: 85% (active)

compound: C[C@H]1CN(Cc2ccc(-c3cccc(CNC(=O)c4cccc(C(=O)c5ccc(Cl)c(Cl)c5)c4)c3)s2)CCN1
result: 99% (active)

compound: Cc1ccc(NC(=O)Nc2ccccc2F)cc1-c1ccc(C(=O)Nc2ccncc2)cc1
result: 99% (active)

compound: CC(CCNc1c2ccccc2nc2ccccc12)N1CCN(C)CC1 (stereo not given)
result: 101% (active)

Now consider a different compound.
Give the measured growth inhibition of Cc1nnsc1C(=O)Nc1cccc(-c2cccc(-c3nc4ccc(C(F)(F)F)cc4[nH]3)c2)c1 .
101% (active)

====

System: F380Y/beta1
protocol_details: modulators of BK channel variants, profiling panel, selectivity assay, cell-based, U2OS BacMam, thallium flux, beta subunits (AID 1259406);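 also: initial slope of Thallos dye fluorescence rise after thallium is added; log ratio against the mean of 0.3% DMSO vehicle wells on the same plate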
assay_context: at 30 µM
Activity calls are given as the source filed them.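 Rule for the calls: active = thallium flux through the channel raised or lowered by more than 3 SD from vehicle-only wells, actives on both sides; inactive = the rest.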
Pick one and only one: 1.0 = active, 0.0 = inactive

Examples from the recorded data:
compound: CC(C)OC(=O)CCC/C=C\C[C@@H]1[C@@H](CC[C@@H](O)CCc2ccccc2)[C@H](O)C[C@@H]1O
discrete_label: 1.0
//
compound: O=c1ncc(F)c[nH]1
discrete_label: 0.0
//
compound: CC(C)c1ccc(NC(=S)NC2CC3CC2C2C=CCC32)cc1 (centres undefined)
discrete_label: 0.0
//
compound: Fc1ccc(CCc2ccc(F)cc2)cc1
discrete_label: 0.0
//
compound: Fc1cccc(Cl)c1CSc1nccn1-c1cccnc1
discrete_label: 0.0
//
compound: O=C(Nc1ccc(-n2ccc(C(F)(F)F)n2)cc1)C1=Cc2cc(Cl)ccc2OC1
discrete_label: 0.0
//
compound: CC(Cc1ccc(O)c(O)c1)(NN)C(=O)O (centres undefined)
discrete_label: 0.0
//
compound: O=C(CC(=O)NNC(=O)c1ccc(F)cc1)NNC(=O)c1ccc(F)cc1
discrete_label: 0.0
//
compound: CCSc1ccc(-c2noc(C(C)(C)C)n2)cn1
discrete_label: 0.0
//
compound: CC1=NC2SC=C(c3ccccc3Cl)N2C(=O)C1 (centres undefined)
discrete_label: 0.0

Any idea what this test logged for O=[N+]([O-])c1ccc(N2CCSCC2)cc1O ?
0.0

Any idea what this test logged for CCCCCCCCCCCCSC(=S)NCC1CCCO1 (centres undefined) ?
0.0

Any idea what this test logged for CN(Cc1nnc(-c2ccc3ccccc3c2)o1)c1nnc(C(F)(F)F)s1 ?
0.0

====

protocol_details: differential killing of epithelial or mesenchymal cells, primary screen, imaging, PC-3E GFP, TEM4-18 mCherry, co-culture (AID 1345086);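 also: cells exposed to compound for 72 h before imaging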
assay_context: imaging cell counts, measured here: mesenchymal TEM4-18 mCherry cell survival, at 1 µM
Classification field: enter Yes for normalised cell number values not below 1, No for values below it.

Examples from the recorded data:
molecule: NC(=O)C(c1ccccc1)(c1ccccc1)C1CCN(CCc2ccc3c(c2)CCO3)C1 (stereo not given)
discrete_label: Yes
--
molecule: CC(C)CCCC(C)C1CCC2C3CC[C@H]4CC(=O)CC[C@]4(C)C3CC[C@]12C (stereo not given in full)
discrete_label: No
--
molecule: C/C=C/[C@@H]1OC2=C(C(=O)O[C@H]2C)[C@H](O)[C@H]1O
discrete_label: No

Could you tell me if the measured normalised cell number of NC(=O)c1cc(F)c(F)cc1F reaches 1 or more?
Yes

Could you tell me if the measured normalised cell number of O=C(N[C@@H](CO)[C@H](O)c1ccc([N+](=O)[O-])cc1)C(Cl)Cl reaches 1 or more?
Yes

====

System: R275C
protocol_details: modulators of BK channel variants, profiling panel, selectivity assay, cell-based, U2OS BacMam, thallium flux, beta subunits (AID 1259406);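 also: initial slope of Thallos dye fluorescence rise after thallium is added; log ratio against the mean of 0.3% DMSO vehicle wells on the same plate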
assay_context: at 30 µM
readout_type: log fold change Tl+ flux
Reply briefly: the number, and no unit.

Solved entries:
compound: CCOC(=O)c1cnn(C(=O)c2ccc(-n3c(C)ccc3C)cc2)c1N
assayed_target: R275C
readout_type: log fold change Tl+ flux
quantitative_readout: -0.0135

compound: Cc1ccc(S(N)(=O)=O)c(I)c1
assayed_target: R275C
readout_type: log fold change Tl+ flux
quantitative_readout: 0.0442

compound: Cc1cc(C)n2nc(Sc3ncccc3[N+](=O)[O-])nc2n1
assayed_target: R275C
readout_type: log fold change Tl+ flux
quantitative_readout: 0.0175

compound: O=c1[nH]cnc2scc(-c3cccs3)c12
assayed_target: R275C
readout_type: log fold change Tl+ flux
quantitative_readout: -0.0434

Give the measured log fold change Tl+ flux of CCOC(=O)[C@@H](CCc1ccccc1)N[C@@H](C)C(=O)N1CCC[C@H]1C(=O)O .
0.0223

Give the measured log fold change Tl+ flux of Cc1cc(Nc2ccc(F)cc2F)nc(SCc2c(Cl)cccc2Cl)n1 .
-0.0547

Give the measured log fold change Tl+ flux of OC(Cc1ccccc1)(c1ccccc1)c1ccccc1N=Cc1ccc2c(c1)OCO2 (stereo not given) .
-0.0385

Give the measured log fold change Tl+ flux of Cc1nn(Cc2nnc(-c3cc(C(F)(F)F)cc(C(F)(F)F)c3)o2)c(C)c1Br .
-0.0117

Give the measured log fold change Tl+ flux of O=c1c(O[C@@H]2O[C@H](CO)[C@H](O)[C@H](O)[C@H]2O)c(-c2ccc(O)c(O)c2)oc2cc(O)cc(O)c12 .
-0.00833

Give the measured log fold change Tl+ flux of O=S(=O)(c1ccc(N2CCOCC2)nc1)N1CCN(c2c(Cl)cncc2Cl)CC1 .
0.00433

====

protocol_details: sensitizers of A549 cells to miR-34 induction, primary screen, imaging, A549 dox-inducible miR-34, nuclei and caspase counts (AID 1347080)
assay_context: A549 miR-34 inducible, Hoechst nuclei count, 48 h; measured here: relative caspase fold change +Dox/-Dox
Bridge positions count the residues as written; N and C are the ends. Square brackets hold non-standard residues; d marks the D form. Peptide text beside a SMILES is read from it. * marks the point of attachment. ξ: configuration not given here. ξDab(CH2SO3H) = NC(CCNCS(=O)(=O)O)C(=O)O; Heptanoyl(6-Me) = CC(C)CCCCC(=O)*; Dab = NCC[CH](N)C(=O)O
readout_type: fold change

compound: CNC(=O)Oc1ccc2c(c1)[C@]1(C)CCN(C)C1N2C (stereo partly drawn)
readout_type: fold change
result: 1.81
//
compound: CCC(C)C1NC(=O)C(CCNCS(=O)(=O)O)NC(=O)C(NC(=O)C(CCNCS(=O)(=O)O)NC(=O)C(NC(=O)C(CCNCS(=O)(=O)O)NC(=O)CCCCC(C)C)C(C)O)CCNC(=O)C(C(C)O)NC(=O)C(CCNCS(=O)(=O)O)NC(=O)C(CCNCS(=O)(=O)O)NC(=O)C(C(C)CC)NC1=O (stereo not drawn) ({Heptanoyl(6-Me)}-[ξDab(CH2SO3H)]T[ξDab(CH2SO3H)][Dab][ξDab(CH2SO3H)]II[ξDab(CH2SO3H)][ξDab(CH2SO3H)]T; lactam 4-C; configuration not given here)
readout_type: fold change
result: 0.679

Now consider a different compound.
Give the measured fold change of CC(=O)NCCCCCCNC(C)=O .
1.58
